Hey, just so you know, these numbers are from ChEMBL document CHEMBL1201862.

# Tested on: NCI-H522
# Procedure text: NCI tumour cell line growth inhibition, 48 h
The source made the active and inactive calls. Cut-off read from the data, not from the text of the source: active = GI50 up to about 1.1 µM and inactive = higher.
Readout name: GI50

>>> meas_value("O=C1NCC2=C1CCC1c3ccccc3CCN21 (centres undefined)")
"> 100 µM (inactive)"
>>> meas_value("COC(=O)c1cccc(C)c1C1CN=NC12Cc1c(ccc(C)c1C)C2=O (centres undefined)")
"15.8 µM (inactive)"
>>> meas_value("CC12CC1C(c1cccc([N+](=O)[O-])c1)(c1cccc([N+](=O)[O-])c1)N=N2 (centres undefined)")
"6.7 µM (inactive)"
>>> meas_value("COc1c(O)c(OC)c(C(=O)/C=C/c2ccccc2)c(O)c1OC")
"16 µM (inactive)"
>>> meas_value("CC1(C)C2CCC1C(=O)C(C=O)C2 (centres undefined)")
"> 100 µM (inactive)"
>>> meas_value("N#Cc1c(OCCF)c2ccccc2n2c1nc1ccccc12")
"19.6 µM (inactive)"
>>> meas_value("C[Si](C)(C)c1ccc(-c2sc(-c3ccc([Si](C)(C)C)s3)c3c2C[Si]2(C3)Cc3c(-c4ccc([Si](C)(C)C)s4)sc(-c4ccc([Si](C)(C)C)s4)c3C2)s1")
"> 100 µM (inactive)"
>>> meas_value("COC(=O)c1c[nH]c(=O)[nH]c1=O")
"> 100 µM (inactive)"
>>> meas_value("CC(C)N(C(=O)C12C3C4C5C3C1(C(=O)N(C(C)C)C(C)C)C5C42)C(C)C (centres undefined)")
"> 100 µM (inactive)"

----------
# Test system: COLO 205
# Procedure text: NCI tumour cell line growth inhibition, 48 h
Calls of active or inactive are those of the source. Cut-off read from the data, not from the text of the source: active = GI50 up to about 1.1 µM and inactive = higher.
Reported GI50 by item:
Readout name: GI50

>>> meas_value("C=CCOC(=O)C1=C(C)N=C2N[C@H](CCCCCCCCC)C[C@@H]3CCC1N23 (stereo partly specified)")
"21.3 µM (inactive)"
>>> meas_value("O=C1O/C(=C\\c2ccc(O)c(Br)c2)C(c2ccc(O)cc2)=C1Cl")
"47.5 µM (inactive)"
>>> meas_value("O=C1C(Br)=C(c2ccccc2)O/C1=C/C(=O)c1ccc(Br)cc1")
"> 100 µM (inactive)"
>>> meas_value("CCN(CC)CCNC(=O)c1nn(-c2ccc(Cl)cc2)c2c1CCc1cc(OC)ccc1-2")
"2.26 µM (inactive)"
>>> meas_value("Cc1nc2c(n1CCO)C(=O)c1ccccc1C2=O")
"18.9 µM (inactive)"
>>> meas_value("S=C(/N=C1/NCC(CN2CCN(c3ccccc3)CC2)O1)Nc1ccccc1 (stereo unspecified)")
"28.6 µM (inactive)"

----------
Reported GI50 by item:
# System: SR
# Procedure text: NCI tumour cell line growth inhibition, 48 h
Active and inactive are the calls of the source. Cut-off read from the data, not from the text of the source: active = GI50 up to about 1.1 µM and inactive = higher. Square brackets hold non-standard residues; d marks the D form. Peptide text beside a SMILES is read from it. * marks the point of attachment. Phe(4-NO2) = N[CH](Cc1ccc([N+](=O)[O-])cc1)C(=O)O; Cbz = O=C(OCc1ccccc1)*
Readout name: GI50

>>> meas_value("COC(=O)c1ccccc1Nc1nc(-c2cccs2)nc2cc(OC)c(OC)cc12")
"18 µM (inactive)"
>>> meas_value("O=C1NCC2=C1CCC1c3ccccc3CCN21 (configuration not stated)")
"> 100 µM (inactive)"
>>> meas_value("COC(=O)c1cccc(C)c1C1CN=NC12Cc1c(ccc(C)c1C)C2=O (configuration not stated)")
"21.3 µM (inactive)"
>>> meas_value("CCOC(=O)CCC(NC(=O)OCc1ccccc1)C(=O)NC(CCC(=O)OCC)C(=O)NC(CCC(=O)OCC)C(=O)NC(CCC(=O)OCC)C(=O)NC(CCC(=O)OCC)C(=O)NC(Cc1ccc([N+](=O)[O-])cc1)C(=O)NC(CCC(=O)OCC)C(=O)NC(CCC(=O)OCC)C(=O)NC(CCC(=O)OCC)C(=O)NC(CCC(=O)OCC)C(=O)NC(CCC(=O)OCC)C(=O)OCC (configuration not stated) (Cbz-E(OEt)E(OEt)E(OEt)E(OEt)E(OEt)[Phe(4-NO2)]E(OEt)E(OEt)E(OEt)E(OEt)E(OEt)-OEt; configuration not given here)")
"> 50 µM (inactive)"
>>> meas_value("CCOC(=O)C1(C/C=C(/C)Cl)CCCC1=O (configuration not stated)")
"20.7 µM (inactive)"
>>> meas_value("COC(=O)c1cc(-c2cccn2C)c2c(c1C(=O)OC)c1ccccc1n2C")
"16.9 µM (inactive)"
>>> meas_value("CSc1n[nH]c2c1c(C)nn2-c1ccccc1")
"> 100 µM (inactive)"
